assayedTarget: PDGF-BB (platelet-derived growth factor BB) (Homo sapiens)
methodSummary: filter
experimentalParameters: Bn-dU; C3 at 12
pKd: −log10 of the molar value.
propertyName: pKd

Which measured pKd value corresponds to TTACGACTACGTACACGCGTTTATAGCG [4149-8_75] ?
< 8.00

---

assayedTarget: PDGF-BB (platelet-derived growth factor BB) (Homo sapiens) (UniProt P01127)
Sequence (P01127 82-190): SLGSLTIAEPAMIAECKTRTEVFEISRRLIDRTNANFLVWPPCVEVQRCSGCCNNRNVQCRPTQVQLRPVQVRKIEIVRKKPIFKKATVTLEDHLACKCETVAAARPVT
methodSummary: filter
experimentalParameters: NapdU (5-(N-naphthylmethylcarboxamide)-2'-deoxyuridine) at 9,11,13,19,21; rest DNA; SB18T, 37 C
propertyName: Kd (pM)
Write the value in pM as a bare number.

Bench note: what Kd did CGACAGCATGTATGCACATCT [5169-4_26] show?
17
